Recorded values, source ChEMBL document CHEMBL5058577.

- System: U2OS
- METHOD DESCRIPTION: Multiplex assay against U2OS
- Assay type: toxicity, cell-based
- EXPERIMENTAL SETUP: human, 24 h, 10 µM, compound concentration 10 uM, replicate 1
Label true when Population Apoptotic (%) is strictly below 80%; otherwise label false.

Use the examples below as a reference point.
- CN1CCN(c2cc(-c3ccccc3)nc(N)n2)CC1: false
- CC(/C=C1\SC(=S)N(CCCC(=O)Nc2ccc(C(=O)O)c(O)c2)C1=O)=C\c1ccccc1: false
- CN(C)C(=O)Cn1cc(-c2ccc(-c3cncc4ccccc34)cc2)cn1: true
- CC(C)COc1ccc(CNC(=O)N(Cc2ccc(F)cc2)C2CCN(C)CC2)cc1 [PIMAVANSERIN]: false
- CN[C@@H](C)C(=O)N[C@H](C(=O)N1CCC[C@H]1C(=O)Nc1snnc1-c1ccccc1)C1CCCCC1 [GDC-0152]: true

Hello, is Population Apoptotic (%) of the following molecule strictly smaller than 80%? CC(C)c1noc(N2CCC(COc3ccc(-c4ccc(S(C)(=O)=O)cc4)nc3)CC2)n1 [GSK-1292263]
false

Hello, is Population Apoptotic (%) of the following molecule strictly smaller than 80%? N#Cc1cc(F)cc(-c2nc(-c3ccc(F)cn3)no2)c1
false

Hello, is Population Apoptotic (%) of the following molecule strictly smaller than 80%? CCc1cc2cc(NS(=O)(=O)c3ccc(C#N)cc3)ccc2n(CC)c1=O
false

----------
- System: U2OS
- METHOD DESCRIPTION: Multiplex assay against U2OS
- Assay type: toxicity, cell-based
- EXPERIMENTAL SETUP: human, 12 h, 1 µM, compound concentration 1 uM, replicate 2
QUANTITY MEASURED: Population Hoechst High Intensity Objects (%)
Unit % implied. Number only.

- CC(C)(C)c1cc(NC(=O)Nc2ccc(-c3cn4c(n3)sc3cc(OCCN5CCOCC5)ccc34)cc2)no1: 1
- Cc1sc2c(c1C)C(c1ccc(Cl)cc1)=N[C@@H](CC(=O)NCCCCCCCCNC(=O)COc1cccc3c1C(=O)N(C1CCC(=O)NC1=O)C3=O)c1nnc(C)n1-2 (stereo partly drawn): 0
- Br.CS(=O)(=O)Nc1c(O)ccc2c1CCCC2C1=NCCN1 (stereo not drawn): 0
- CC(/C=C1\SC(=S)N(CCCC(=O)Nc2ccc(C(=O)O)c(O)c2)C1=O)=C\c1ccccc1: 4
- CC(=O)Nc1cccc2c1c(Sc1ccc(Cl)cc1)c(C)n2CC(=O)O: 1

Can you look up the measured Population Hoechst High Intensity Objects (%) of O=C1[C@H](Cc2ccc(O)cc2)N2C(=O)CCN(C(=O)NCc3ccccc3)[C@H]2CN1Cc1cccc2ccccc12 for me?
0

Can you look up the measured Population Hoechst High Intensity Objects (%) of O=C(NCCN1CCC(n2c(=O)[nH]c3cc(Cl)ccc32)CC1)c1ccc(F)cc1 [HALOPEMIDE] for me?
0

Can you look up the measured Population Hoechst High Intensity Objects (%) of CC[C@@H](C)Nc1nc(C)nc2c(-c3ccc(OC)nc3C)c(C)nn12 for me?
0

Can you look up the measured Population Hoechst High Intensity Objects (%) of COc1cccc2c1c(NS(=O)(=O)c1ccc(Cl)s1)nn2Cc1cccc(CNC(=O)C(C)(C)O)c1 for me?
6

Can you look up the measured Population Hoechst High Intensity Objects (%) of CCCCC(=O)N(Cc1ccc(-c2ccccc2-c2nnn[nH]2)cc1)[C@H](C(=O)O)C(C)C for me?
3

Can you look up the measured Population Hoechst High Intensity Objects (%) of Cl.N=C(N)NC(=O)Cc1c(Cl)cccc1Cl [GUANFACINE HYDROCHLORIDE] for me?
2

Can you look up the measured Population Hoechst High Intensity Objects (%) of Cc1onc(-c2ccccc2Cl)c1C(=O)N(C)c1ccc(Cl)cc1 for me?
1

Can you look up the measured Population Hoechst High Intensity Objects (%) of N#Cc1c(Oc2cccc(OS(=O)(=O)CCCC(F)(F)F)c2)cccc1C(F)(F)F for me?
0

Can you look up the measured Population Hoechst High Intensity Objects (%) of N#Cc1cc(F)cc(-c2nc(-c3ccc(F)cn3)no2)c1 for me?
0

Can you look up the measured Population Hoechst High Intensity Objects (%) of Cc1cccc(NC(=O)CN2CCC(c3ccccn3)CC2)c1.Cl.Cl for me?
0

----------
Each item that follows carries a reported Population Pyknosed Nuclei (%).
- Tested on: HEK-293T
- METHOD DESCRIPTION: Multiplex assay against HEK293T
- Type: toxicity, cell-based
- EXPERIMENTAL SETUP: human, 12 h, 1 µM, compound concentration 1 uM, replicate 2
Unit % implied. Number only.

Example compounds with recorded Population Pyknosed Nuclei (%):
* CCCCC(=O)N(Cc1ccc(-c2ccccc2-c2nnn[nH]2)cc1)[C@H](C(=O)O)C(C)C | 18
* COC[C@@H](c1ccc(C(F)(F)F)cc1)N1CCN(C2(C)CCN(C(=O)c3c(C)ncnc3C)CC2)C[C@@H]1C.O=C(O)/C=C\C(=O)O [VICRIVIROC MALEATE] | 11
* CN[C@@H](C)C(=O)N[C@H](C(=O)N1CCC[C@H]1C(=O)Nc1snnc1-c1ccccc1)C1CCCCC1 | 14
* CC(/C=C1\SC(=S)N(CCCC(=O)Nc2ccc(C(=O)O)c(O)c2)C1=O)=C\c1ccccc1 | 8

Can you look up the measured Population Pyknosed Nuclei (%) of CC(C)COc1ccc(CNC(=O)N(Cc2ccc(F)cc2)C2CCN(C)CC2)cc1 for me?
18

Can you look up the measured Population Pyknosed Nuclei (%) of Cc1cccc(NC(=O)CN2CCC(c3ccccn3)CC2)c1.Cl.Cl for me?
11

Can you look up the measured Population Pyknosed Nuclei (%) of CCCCC1=NC2(CCCC2)C(=O)N1Cc1ccc(-c2ccccc2-c2nnn[nH]2)cc1 for me?
12

Can you look up the measured Population Pyknosed Nuclei (%) of COc1cccc2c1c(NS(=O)(=O)c1ccc(Cl)s1)nn2Cc1cccc(CNC(=O)C(C)(C)O)c1 for me?
15

----------
- Test system: HEK-293T
- METHOD DESCRIPTION: Multiplex assay against HEK293T
- Type: toxicity, cell-based
- EXPERIMENTAL SETUP: human, 48 h, 10 µM, compound concentration 10 uM, replicate 2
Each item that follows carries a reported Population Normal (%).
Unit % implied. Number only.

Example compounds with recorded Population Normal (%):
- CC(C)(C)c1cc(NC(=O)Nc2ccc(-c3cn4c(n3)sc3cc(OCCN5CCOCC5)ccc34)cc2)no1: 87
- O=C(CCCc1ccccc1)Nc1nc2ccccc2c(=O)s1: 88

Item Cc1cccc(NC(=O)CN2CCC(c3ccccn3)CC2)c1.Cl.Cl with HEK-293T - Population Normal (%)?
97

Item C[C@H](N)COC(=O)[C@@H](CCCCN)NC(=O)Cc1c(-c2ccc3ccccc3c2)[nH]c2c1ccc1ccccc12 with HEK-293T - Population Normal (%)?
95

Item CC(=O)Nc1cccc2c1c(Sc1ccc(Cl)cc1)c(C)n2CC(=O)O with HEK-293T - Population Normal (%)?
95

Item CC[C@@H](C)Nc1nc(C)nc2c(-c3ccc(OC)nc3C)c(C)nn12 with HEK-293T - Population Normal (%)?
81

Item Cl.NCCc1ccc(O)c(O)c1 [DOPAMINE HYDROCHLORIDE] with HEK-293T - Population Normal (%)?
98

Item CCCCC(=O)N(Cc1ccc(-c2ccccc2-c2nnn[nH]2)cc1)[C@H](C(=O)O)C(C)C with HEK-293T - Population Normal (%)?
97

Item CC(/C=C1\SC(=S)N(CCCC(=O)Nc2ccc(C(=O)O)c(O)c2)C1=O)=C\c1ccccc1 with HEK-293T - Population Normal (%)?
94

----------
Each item that follows carries a reported Population Mitochondria Different-Phenotype (%).
- Test system: Fibroblast
- METHOD DESCRIPTION: Multiplex assay against human fibroblast
- Type: toxicity, cell-based
- EXPERIMENTAL SETUP: 12 h, 10 µM, compound concentration 10 uM, replicate 2
Write the numeric value and append its unit.

Example compounds with recorded Population Mitochondria Different-Phenotype (%):
- O=C(NCCN1CCC(n2c(=O)[nH]c3cc(Cl)ccc32)CC1)c1ccc(F)cc1 [HALOPEMIDE]: 14%
- CN(C)C(=O)Cn1cc(-c2ccc(-c3cncc4ccccc34)cc2)cn1: 5%
- Cc1c(CC(=O)O)c2cccnc2n1Cc1ccc(S(C)(=O)=O)cc1C(F)(F)F: 6%
- Cc1sc2c(c1C)C(c1ccc(Cl)cc1)=N[C@@H](CC(=O)NCCCCCCCCNC(=O)COc1cccc3c1C(=O)N(C1CCC(=O)NC1=O)C3=O)c1nnc(C)n1-2 (stereo partly specified): 26%
- C[C@H](N)COC(=O)[C@@H](CCCCN)NC(=O)Cc1c(-c2ccc3ccccc3c2)[nH]c2c1ccc1ccccc12: 6%
- CCCCCC(O)/C=C/[C@H]1C(=O)CC(O)C1C/C=C\CCCC(=O)O (stereo partly specified): 7%
- CCCOc1ccc2[nH]cc(C3=CCNCC3)c2n1.Cl: 10%
- Cc1onc(-c2ccccc2Cl)c1C(=O)N(C)c1ccc(Cl)cc1: 11%
- CC(C)c1noc(N2CCC(COc3ccc(-c4ccc(S(C)(=O)=O)cc4)nc3)CC2)n1: 10%
- N#Cc1cc(F)cc(-c2nc(-c3ccc(F)cn3)no2)c1: 12%

Can you look up the measured Population Mitochondria Different-Phenotype (%) of CCc1cc2cc(NS(=O)(=O)c3ccc(C#N)cc3)ccc2n(CC)c1=O for me?
6%
